tested on: HIV-2 (ROD); assay: Inhibition of HIV-2 syncytium formation in CEM cells; format: cell-based; conditions: protection of CEM cells against virus-induced cytopathicity at the concentration in the previous column
In this section, each of the compounds is paired with its reported HIV-2 % Protection.
Give just the numeric value; % need not be written.

# example entries with known answers
Compound: Cc1cccc(CSc2cccc[n+]2C)c1.[Cl-]
HIV-2 % Protection, %: 0.0

Compound: O=S(=O)(Cc1c(Cl)ccc(Cl)c1Cl)c1cccc[n+]1[O-]
HIV-2 % Protection, %: 37.5

-- ask So what's the measured HIV-2 % Protection for this one? CN1CCCCC1CSc1cccc[n+]1[O-] (racemic)
-- reply 0.0

-- ask Could you share which HIV-2 % Protection value was measured for Cc1ccc[n+]([O-])c1SCc1c(Cl)cccc1Cl ?
-- reply 0.0

----------
tested on: HHV-6 (Z-29 strain, variant B); assay: Anti-HHV-6 activity in MOLT-3 cells (CPE and viral DNA slot blot); type: cell-based, human herpes virus type 6 (HHV-6); details: Homo sapiens, MOLT-3, read-out: EC50 Based on Viral DMA Detection, MOLT-3 cells, Exp. 3
Quantity name: EC50

Study these solved cases before continuing.
Compound: O=S(=O)(Cc1ccccc1)c1cccc[n+]1[O-] [Compound 6, 2-(Benzylsulfonyl)-pyridine-N-oxide]
EC50: 22.7 µg/mL

Compound: Cc1ccc(C)c(CS(=O)(=O)c2cccc[n+]2[O-])c1 [Compound 10]
EC50: 15.6 µg/mL

Compound: O=C(O)P(=O)(O)O [PFA, Foscarnet, reference compound]
EC50: 9.1 µg/mL

For the next question, use this compound.
-- ask Could you tell me which EC50 is on file for [O-][n+]1ccccc1[S+]([O-])Cc1ccccc1 (stereo not shown) [Compound 5, 2-(Benzylsulfinyl)-pyridine-N-oxide] ?
-- reply > 100 µg/mL

----------
tested on: HIV-2 (ROD); test: Inhibition of HIV-2 syncytium formation in CEM cells; type: cell-based; details: CEM cells, syncytium formation, day four post infection
Quantity name: EC50 (ug/ml) HIV-2 (µg/mL)
Unit µg/mL implied. Number only.

Structure as smiles: [O-][n+]1c(Cl)cccc1SCc1ccccc1
Quantity name: EC50 (ug/ml) HIV-2
Data value: 16.0

Let us move to another entry and its EC50 (ug/ml) HIV-2.
-- ask Bench note: what EC50 (ug/ml) HIV-2 did N#Cc1ccccc1CS(=O)(=O)c1cccc[n+]1[O-] show?
-- reply 9.5

----------
# HIV-1 % Protection per record follows
test system: HIV-1 (IIIB); assay: microbe, parasite or virus in culture; assay type: cell-based; details: protection of CEM cells against virus-induced cytopathicity at the concentration in the previous column
Reply numerically in %, unit not repeated.

Some compounds with recorded HIV-1 % Protection:
Compound: O=S(=O)(Cc1ccc(CS(=O)(=O)c2cccc[n+]2[O-])cc1)c1cccc[n+]1[O-]
Quantity name: HIV-1 % Protection
Data value: 37.5
--
Compound: Cc1ccccc1C[S+]([O-])c1cccc[n+]1[O-] (stereo not drawn)
Quantity name: HIV-1 % Protection
Data value: 37.5
--
Compound: COc1ccc(C[S+]([O-])c2cccc[n+]2[O-])cc1OC (stereo not drawn)
Quantity name: HIV-1 % Protection
Data value: 0.0

-- ask Find HIV-1 % Protection (HIV-1 (IIIB)) for the entry O=S(=O)(Cc1c2ccccc2cc2ccccc12)c1cccc[n+]1[O-]
-- reply 0.0

-- ask Test system HIV-1 (IIIB); read-out HIV-1 % Protection; what value for Cc1ccc[n+]([O-])c1[S+]([O-])Cc1c(Cl)cccc1Cl (stereo not drawn) ?
-- reply 0.0

-- ask Form: Entry = O=S(=O)(Cc1cccs1)c1cccc[n+]1[O-] | System = HIV-1 (IIIB) | HIV-1 % Protection = ____
-- reply 0.0

-- ask What HIV-1 % Protection appears in the records for this compound with HIV-1 (IIIB)? Cc1cc[n+]([O-])c([S+]([O-])Cc2ccc(Cl)cc2)c1 (stereo not drawn)
-- reply 37.5

-- ask State its HIV-1 % Protection on HIV-1 (IIIB): [O-][n+]1ccccc1SCc1ccccc1
-- reply 37.5

-- ask Any idea what HIV-1 % Protection came out for COc1ccc(CS(=O)(=O)c2cc(C(C)(C)C)cc[n+]2[O-])cc1 on HIV-1 (IIIB)?
-- reply 0.0
